Test system: HepG2-TUBA1B-RELA
procedure.text: phenotypically active (imaging signature differs from DMSO and reproducible) at any of 0.3-9 uM (binary (1 = active, 0 = inactive)); higher = active
assay.conditions: treatment time: 24 h
test.readout: phenotypically active

compound | value.reported
CNC(=O)c1ccc(C)c(-n2c(C)cc(OCc3ccc(F)cc3F)c(Br)c2=O)c1 | 0
NC[C@H](O)c1ccc(O)c(O)c1 [norepinephrine] | 0
C#CCN[C@@H]1CCc2ccccc21 | 1
C[N+]1(C)[C@@H]2C[C@@H](OC(=O)C(O)(c3cccs3)c3cccs3)C[C@H]1[C@@H]1O[C@@H]12 [Tiotropium bromide] | 0
CC(C[N+](C)(C)C)OC(N)=O (stereo not given) | 0

----------
Test system: A549-TP53BP1-CLTA
procedure.text: phenotypically active (imaging signature differs from DMSO and reproducible) at any of 0.3-9 uM (binary (1 = active, 0 = inactive)); higher = active
assay.conditions: treatment time: 24 h
Where a name gives a salt, the structure may show the parent alone.
Listed compounds paired with reported phenotypically active

compound | phenotypically active
Cc1cccc(-c2n[nH]cc2-c2ccc(F)c(-c3cnn(CCO)c3)c2)n1 | 0
Cc1c(C(=O)N2CCOc3ccc(-c4ccc(N)nc4)cc3C2)ccc(S(C)(=O)=O)c1F | 1
O=C(NCCCNc1nc(Nc2cccc(NC(=O)N3CCCC3)c2)ncc1I)c1cccs1 | 1
O=c1cc(-c2cccc3c2Sc2ccccc2S3)oc(N2CCOCC2)c1 | 0
COC(=O)C(Cc1ccc(OCCn2c(=O)sc3cc(C(=O)c4ccccc4)ccc32)cc1)C(=O)OC | 0
CCCc1nn(C)c2c(=O)[nH]c(-c3cc(S(=O)(=O)N4CCN(C)CC4)ccc3OCC)nc12 [Sildenafil citrate] | 0
CC[C@]1(O)C[C@@H]2CN(CCc3c([nH]c4ccccc34)[C@@](C(=O)OC)(c3cc4c(cc3OC)N(C=O)[C@H]3[C@@](O)(C(=O)OC)[C@H](OC(C)=O)[C@]5(CC)C=CCN6CC[C@]43[C@@H]65)C2)C1 | 1
CC(=O)N[C@@H](CC(=O)O)C(=O)N[C@@H](CCC(=O)O)C(=O)O | 0
CCOc1ccc2nc(S(N)(=O)=O)sc2c1 [ethoxzolamide] | 0
COc1cc2c(Nc3ccc(Br)cc3F)ncnc2cc1OCC1CCN(C)CC1 | 1
CCCCCOC(=O)Nc1nc(=O)n([C@@H]2O[C@H](C)[C@@H](O)[C@H]2O)cc1F | 0
Cc1cc(C)c(C)c(S(=O)(=O)Nc2ccc(N3CC[C@H](C(=O)O)C3)c3ccccc23)c1C | 0
Cc1ccc(NC(=O)c2cccc(C(C)(C)C#N)c2)cc1Nc1ccc2ncn(C)c(=O)c2c1 | 1
CCOC(=O)[C@H](CCc1ccccc1)N[C@@H](C)C(=O)N1Cc2ccccc2C[C@H]1C(=O)O | 0
C[N+](C)(CCCCCC[N+](C)(C)CCCN1C(=O)c2ccccc2C1=O)CCCN1C(=O)c2ccccc2C1=O [W-84 dibromide] | 0
Clc1ccccc1C(c1ccccc1)(c1ccccc1)n1ccnc1 | 1
CC(C)(C)c1ccc(C(=O)Nc2cn3cc(-n4ccnc4)ccc3n2)cc1 | 0

----------
Tested on: HepG2-CANX-COX4
procedure.text: lowest phenotypically active concentration; higher = less potent
assay.conditions: treatment time: 24 h
Counter-ions that a name gives are not always drawn.
Listed compounds paired with reported lowest phenotypically active concentration
test.readout: lowest phenotypically active concentration (µM)

compound | tested.target | units.label | bound.type | value.reported
CN(C)c1ccc(C(=O)NCCCCCCC(=O)NO)cc1 | HepG2-CANX-COX4 | µM | ≤ | 0.3
Fc1ccccc1CNCc1ccc(-c2ccnc3[nH]ccc23)cc1 [OXA 06 dihydrochloride] | HepG2-CANX-COX4 | µM | = | 1
CN1[C@@H]2CC[C@H]1C[C@@H](OC(c1ccccc1)c1ccccc1)C2 | HepG2-CANX-COX4 | µM | = | 9
COc1cc(O)cc(O)c1C(=O)/C=C/c1ccccc1 | HepG2-CANX-COX4 | µM | = | 9
O=C1/C(=C\c2ccncc2)CCC/C1=C\c1ccncc1 | HepG2-CANX-COX4 | µM | = | 3
Cc1c[nH]c2nccc(Oc3c(F)cc(Nc4cc(Cl)nc(N)n4)cc3F)c12 | HepG2-CANX-COX4 | µM | ≤ | 0.3
CC[C@H](C)[C@H](NC(=O)OCc1ccccc1)C(=O)N[C@@H](CCC(=O)OC(C)(C)C)C(=O)N[C@@H](C)C(=O)N[C@H](C=O)CC(C)C | HepG2-CANX-COX4 | µM | ≤ | 0.3
CC(C)(C)c1cnc(CSc2cnc(NC(=O)C3CCNCC3)s2)o1 | HepG2-CANX-COX4 | µM | ≤ | 0.3
C[C@@H](N)[C@H]1CC[C@H](C(=O)Nc2ccncc2)CC1 | HepG2-CANX-COX4 | µM | = | 1
COc1ccc(S(=O)(=O)Nc2cccnc2Nc2ccc(O)cc2)cc1 | HepG2-CANX-COX4 | µM | = | 1
O=C(O)c1ccc(Nc2ncc3c(n2)-c2ccc(Cl)cc2C(c2c(F)cccc2F)=NC3)cc1 | HepG2-CANX-COX4 | µM | ≤ | 0.3
COCC(=O)O[C@]1(CCN(C)CCCc2nc3ccccc3[nH]2)CCc2cc(F)ccc2[C@@H]1C(C)C | HepG2-CANX-COX4 | µM | = | 9
O=C1N=C(NCc2cccs2)S/C1=C\c1ccc2ncccc2c1 | HepG2-CANX-COX4 | µM | = | 3
O=C(Nc1ccncc1)c1cc([N+](=O)[O-])ccc1Cl | HepG2-CANX-COX4 | µM | = | 3
CCc1c(C(=O)Nc2cc(S(=O)(=O)N(CC)CC)ccc2O)[nH]c(C)c1C(C)=O | HepG2-CANX-COX4 | µM | = | 9
FC(F)(F)c1ccc(/C=C/c2nc(COc3ccc(CCCCn4ccnn4)cc3)co2)cc1 | HepG2-CANX-COX4 | µM | ≤ | 0.3
CCCC1(CCC)CCC2(CCN(CCCN(CC)CC)C2)CC1 [Atiprimod dihydrochloride] | HepG2-CANX-COX4 | µM | = | 1
CC(C)(N)c1cc(C(=O)N[C@@H]2CCc3ccc(OC4=C5CCC(=O)N=C5NC=C4)cc3C2)cc(C(F)(F)F)c1 [ML 786 dihydrochloride] | HepG2-CANX-COX4 | µM | ≤ | 0.3
CCOC(=O)Nc1cc(-c2ccc(C)c(NS(C)(=O)=O)c2)nn2c(C)nnc12 | HepG2-CANX-COX4 | µM | ≤ | 0.3
O=c1cc(N2CCOCC2)oc2c(-c3cccc4c3sc3ccccc34)cccc12 | HepG2-CANX-COX4 | µM | = | 3

Taken from the supplement of paper PMC7411054.
